# Tested Target: ErbB-4 receptor-Ig fusion (homodimer) (human, UniProt Q15303 26-651; Q15303 26-640)
# Sequence (Q15303 other isoform, or with tags, fused parts or gaps): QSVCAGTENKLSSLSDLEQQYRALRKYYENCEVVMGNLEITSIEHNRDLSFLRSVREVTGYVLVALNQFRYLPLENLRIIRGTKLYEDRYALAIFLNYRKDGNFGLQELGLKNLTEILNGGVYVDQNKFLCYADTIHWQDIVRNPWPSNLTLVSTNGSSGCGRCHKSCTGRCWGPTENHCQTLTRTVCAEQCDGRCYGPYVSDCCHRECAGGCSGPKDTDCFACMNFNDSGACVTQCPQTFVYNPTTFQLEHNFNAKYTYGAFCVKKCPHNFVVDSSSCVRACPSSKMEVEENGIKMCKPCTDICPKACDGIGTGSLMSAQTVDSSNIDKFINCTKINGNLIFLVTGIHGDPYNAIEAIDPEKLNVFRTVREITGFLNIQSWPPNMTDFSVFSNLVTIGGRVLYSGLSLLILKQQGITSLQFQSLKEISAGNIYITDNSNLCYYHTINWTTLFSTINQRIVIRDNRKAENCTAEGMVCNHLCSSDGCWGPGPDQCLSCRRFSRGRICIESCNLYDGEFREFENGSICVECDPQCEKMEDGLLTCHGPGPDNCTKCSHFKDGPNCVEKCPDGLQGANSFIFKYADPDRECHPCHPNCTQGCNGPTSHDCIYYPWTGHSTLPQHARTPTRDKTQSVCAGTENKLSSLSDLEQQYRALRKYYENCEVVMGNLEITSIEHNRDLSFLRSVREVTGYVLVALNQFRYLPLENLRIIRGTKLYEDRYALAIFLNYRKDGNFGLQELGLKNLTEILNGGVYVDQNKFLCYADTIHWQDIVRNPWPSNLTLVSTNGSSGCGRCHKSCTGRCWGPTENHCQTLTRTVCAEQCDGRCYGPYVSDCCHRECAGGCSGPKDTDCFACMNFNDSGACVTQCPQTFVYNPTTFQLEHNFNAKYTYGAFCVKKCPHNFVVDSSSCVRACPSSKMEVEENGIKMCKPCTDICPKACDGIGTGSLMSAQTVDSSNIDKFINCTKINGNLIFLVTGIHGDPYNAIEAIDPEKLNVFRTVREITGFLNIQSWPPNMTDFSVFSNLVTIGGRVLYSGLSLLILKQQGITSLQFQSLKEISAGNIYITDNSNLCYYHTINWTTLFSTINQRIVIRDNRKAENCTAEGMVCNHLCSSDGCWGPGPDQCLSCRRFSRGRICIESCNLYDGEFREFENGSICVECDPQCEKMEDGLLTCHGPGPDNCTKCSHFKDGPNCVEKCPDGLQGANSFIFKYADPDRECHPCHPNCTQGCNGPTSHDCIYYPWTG
# Assay Notes: phage ELISA, soluble ErbB-4-Ig as competitor
Quantity: EC50 (nM)
Give bare numbers, in nM.

Prompt: Given the binder HRG-β1 177-244 F189A, phage-displayed (ligand) SHLVKCAEKEKTACVNGGECFMVKDLSNPSRYLCKCPNEFTGDRCQNYVMASFYKHLGIEFMEAEELY , what is its reported EC50?
Response: 106
